# Test System: feline FcRn complex (FcRn-α subunit and β-microglobulin) (feline)
# Assay Method Text: SPR (Biacore), FcRn on SA chip, pH 7.4
Property Name: pKd
Hey, just a heads up that pKd is the negative log base 10 of the concentration in molar.

Which value of pKd has been reported for feline IgG1a mutant ID No. 250: S428M, Q311W (antibody, part only; not given: Variable domains, not shown: another chain or arm of the molecule) constant: ASTTAPSVFPLAPSCGTTSGATVALACLVLGYFPEPVTVSWNSGALTSGVHTFPAVLQASGLYSLSSMVTVPSSRWLSDTFTCNVAHPPSNTKVDKTVRKTDHPPGPKPCDCPKCPPPEMLGGPSIFIFPPKPKDTLSISRTPEVTCLVVDLGPDDSDVQITWFVDNTQVYTAKTSPREEQFNSTYRVVSVLPILHWDWLKGKEFKCKVNSKSLPSPIERTISKAKGQPHEPQVYVLPPAQEELSRNKVSVTCLIKSFHPPDIAVEWEITGQPEPENNYRTTPPQLDSDGTYFVYSKLSVDRSHWQRGNTYTCSVMHEALHSHHTQKSLTQSPGK in the records?
7.48

Data provenance is patent US20240400708A1.
